// reported pIC50 per item
System: KRAS G12V (Homo sapiens (Human), UniProt P01116+P62937, G12V)
Sequence (P01116-2 other isoform, or with tags, fused parts or gaps G12V): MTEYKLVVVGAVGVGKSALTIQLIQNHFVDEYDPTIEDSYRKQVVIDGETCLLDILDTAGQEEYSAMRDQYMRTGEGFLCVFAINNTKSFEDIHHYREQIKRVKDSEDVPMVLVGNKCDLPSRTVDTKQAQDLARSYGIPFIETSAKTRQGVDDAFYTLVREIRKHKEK
Sequence (P62937 whole entry): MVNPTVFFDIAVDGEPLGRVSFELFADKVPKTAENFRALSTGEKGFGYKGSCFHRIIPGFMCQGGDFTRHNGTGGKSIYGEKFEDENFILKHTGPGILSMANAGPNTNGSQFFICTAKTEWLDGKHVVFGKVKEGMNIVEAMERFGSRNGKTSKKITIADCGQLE
Protocol description: Ras-Raf (BRAF RBD) disruption / FRET / MOA assay, KRAS G12V
Assay type: biochemical
Measurement parameters: read-out: IC50* KRAS G12V FRET data
Procedure: The purpose of this biochemical assay is to measure the ability of test compounds to facilitate ternary complex formation between a nucleotide-loaded Ras isoform and cyclophilin A; the resulting ternary complex disrupts binding to a BRAF^RBD construct, inhibiting Ras signaling through a RAF effector. Compound is present in plate wells as a 10-point 3-fold dilution series starting at a final concentration of 30 μM. […]
pIC50: −log10 of the molar value.

Check out these entries, answers already filled in.
Molecule	Meas value
C=CC(=O)N1CC[C@H](C(=O)N(C)[C@H](C(=O)N[C@@H]2C(=O)N3CCC[C@H](N3)C(=O)OCC(C)(C)Cc3c(-c4cncnc4)n(CC)c4ccc(cc34)-c3cccc(c3)[C@H]2OC)C(C)C)C1	< 5.00
C#CCn1c(-c2cccnc2[C@H](C)OC)c2c3cc(ccc31)-c1cccc(c1)C[C@H](NC(=O)[C@H](C(C)C)N(C)C(=O)[C@H]1CCN(C(=O)C=C)C1)C(=O)N1CCC[C@H](N1)C(=O)OCC(C)(C)C2 (atropisomer, axis not shown)	5.00 to 6.00

**Q:** Determine from records and report pIC50 for C=CS(=O)(=O)N1CCC2(CCN([C@H](C(=O)N[C@H]3Cc4cc(O)cc(c4)-c4ccc5c(c4)c(c(-c4cccnc4[C@H](C)OC)n5CC)CC(C)(C)COC(=O)[C@@H]4CCCN(N4)C3=O)C(C)C)C2=O)CC1 (atropisomer, axis not shown)
**A:** 6.00 to 7.00

**Q:** Determine from records and report pIC50 for C=CC(=O)N1CC[C@H](C(=O)N(C)[C@H](C(=O)N[C@H]2Cc3csc(n3)-c3ccc4c(c3)c(c(-c3cccnc3[C@H](C)OC)n4CC(F)(F)F)CC(C)(C)COC(=O)[C@@H]3CCCN(N3)C2=O)C(C)C)C1 (atropisomer, axis not shown)
**A:** 5.00 to 6.00

**Q:** Determine from records and report pIC50 for C=C(C)C(=O)N1CC(N(C)C(=O)N(C)[C@H](C(=O)N[C@H]2Cc3nc(cs3)-c3ccc4c(c3)c(c(-c3cccnc3[C@H](C)OC)n4CC)CC(C)(C)COC(=O)[C@@H]3CCCN(N3)C2=O)C(C)C)C1 (atropisomer, axis not shown)
**A:** 6.00 to 7.00

**Q:** Determine from records and report pIC50 for C=CC(=O)N1CC[C@H](C(=O)N(C)[C@H](C(=O)NC2C[C@@H]3CN(CCO3)c3ccc4c(c3)c(c(-c3cccnc3[C@H](C)OC)n4CC)CC(C)(C)COC(=O)[C@@H]3CCCN(N3)C2=O)C(C)C)C1 (stereo partly drawn)
**A:** < 5.00

**Q:** Determine from records and report pIC50 for CCn1c(-c2cncnc2)c2c3cc(ccc31)-c1cccc(c1)C[C@H](NC(=O)[C@H](C(C)C)N(C)C(=O)[C@H]1CCN(C(=O)C#CCN(C)C)C1)C(=O)N1CCC[C@H](N1)C(=O)OCC(C)(C)C2
**A:** < 5.00

**Q:** Determine from records and report pIC50 for C=CC(=O)N1CC[C@H](C(=O)N(C)[C@H](C(=O)N[C@@H]2C(=O)N3CCC[C@H](N3)C(=O)OCC(C)(C)Cc3c(-c4cncnc4)n(CC)c4ccc(cc34)-c3cccc(c3)[C@@H]2OC)C(C)C)C1
**A:** < 5.00

**Q:** Determine from records and report pIC50 for CO[C@@H](COC1CN(C(=O)C#CC(C)(C)N(C)C)C1)C(=O)N[C@H]1Cc2coc(n2)-c2ccc3c(c2)c(c(-c2cccnc2[C@H](C)OC)n3CC(F)(F)F)CC(C)(C)COC(=O)[C@@H]2CCCN(N2)C1=O (atropisomer, axis not shown)
**A:** 5.00 to 6.00

**Q:** Determine from records and report pIC50 for CCn1c(-c2cccnc2[C@H](C)OC)c2c3cc(ccc31)-c1csc(n1)C[C@H](NC(=O)[C@H](C)N(C)C(=O)[C@H]1CCN(C(=O)C#CC(C)(C)N3CCC3)C1)C(=O)N1CCC[C@H](N1)C(=O)OCC(C)(C)C2 (atropisomer, axis not shown)
**A:** 5.00 to 6.00

The origin of these recorded values is patent US11566007B2.
